target: 5-LOX (Homo sapiens); experiment: 5-LOX fluorescent assay (in vitro lipoxygenase inhibition); assay type: biochemical; conditions: recombinant 5-LOX cell lysate, 20 μM AA, DHR123 fluorescence; several values in a cell = repeat determinations; read-out: IC50 (μM) values for in vitro lipoxygenase inhibition, 5-LOX
Sequence (P09917 whole entry): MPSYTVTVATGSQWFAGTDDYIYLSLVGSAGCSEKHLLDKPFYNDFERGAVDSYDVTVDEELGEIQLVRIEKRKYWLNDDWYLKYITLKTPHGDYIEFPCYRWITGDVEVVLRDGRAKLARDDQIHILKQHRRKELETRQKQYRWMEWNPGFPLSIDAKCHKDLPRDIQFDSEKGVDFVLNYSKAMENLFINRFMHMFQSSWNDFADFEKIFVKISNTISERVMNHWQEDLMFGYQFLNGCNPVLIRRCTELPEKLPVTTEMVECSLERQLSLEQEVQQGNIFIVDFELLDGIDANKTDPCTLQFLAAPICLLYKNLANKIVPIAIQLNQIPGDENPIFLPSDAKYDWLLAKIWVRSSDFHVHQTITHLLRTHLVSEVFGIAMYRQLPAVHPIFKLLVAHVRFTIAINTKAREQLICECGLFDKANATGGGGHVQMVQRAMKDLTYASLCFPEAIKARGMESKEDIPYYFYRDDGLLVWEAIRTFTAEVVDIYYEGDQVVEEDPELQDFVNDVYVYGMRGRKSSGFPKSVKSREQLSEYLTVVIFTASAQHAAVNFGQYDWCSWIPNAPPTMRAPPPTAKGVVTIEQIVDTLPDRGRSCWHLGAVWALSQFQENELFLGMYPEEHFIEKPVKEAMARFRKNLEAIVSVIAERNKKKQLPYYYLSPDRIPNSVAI
The reader will find reported IC50 values listed item by item below.
Form entry: value (µM) — number only.

Reference set, count: 2
c1ncn(CC2(CNc3ccc(NCC4CCCCC4)cc3)COC2)n1 :: 0.09
CN(C)CCOc1c(Nc2ccccc2)ccc2c(-c3ccccc3)cc(=O)[nH]c12 :: 7.23

Input line: Would you kindly share the measured IC50 for c1ccc(-c2ccc(NC3CCCCC3)cc2NCCn2cncn2)cc1 ?
Output line: 0.4

Input line: Given the entry Fc1ccc(Nc2ccc3c(c2)N(CCn2cncn2)CC3)cc1 , report its measured IC50.
Output line: 0.19
